subject of test: SARS-CoV-2 spike protein receptor binding domain (RBD) (SARS-CoV-2, UniProt P0DTC2 319-541)
Let's look at some binders and their measured Kd.
A number alone suffices; assume nM.

Report Kd for IMPI-038 (antibody, V domains shown) VH: QVQLVESGGGVVQPGRSLRLSCAASGFTFSSYGMHWVRQAPGKGLEWVAVISYDGSDKYYADSVKGRFTISRDNSKNTLYLQMNSLRAEDTAVYYCAKTVAGYYYYYYGMDVWGQGTTVTVSS VL: DIQMTQSPSSVSASVGDRVTVTCRASQDISSWLAWFQQKPGKAPKFLIYDASNLENGVPSRFSGSGSGTDFTLTISSLQPEDFATYYCQQAKSFPWTFGQGTKVEIN please.
0.826
